Assign IC90, Activin SMAD RGA to each entry below.
- TARGET_UNDER_TEST: ActRIIA and ActRIIB (on TGFB/SMAD SBE Reporter HEK293 cells) (human)
- Sequence (chain, as listed by the source, chain 1 of 2): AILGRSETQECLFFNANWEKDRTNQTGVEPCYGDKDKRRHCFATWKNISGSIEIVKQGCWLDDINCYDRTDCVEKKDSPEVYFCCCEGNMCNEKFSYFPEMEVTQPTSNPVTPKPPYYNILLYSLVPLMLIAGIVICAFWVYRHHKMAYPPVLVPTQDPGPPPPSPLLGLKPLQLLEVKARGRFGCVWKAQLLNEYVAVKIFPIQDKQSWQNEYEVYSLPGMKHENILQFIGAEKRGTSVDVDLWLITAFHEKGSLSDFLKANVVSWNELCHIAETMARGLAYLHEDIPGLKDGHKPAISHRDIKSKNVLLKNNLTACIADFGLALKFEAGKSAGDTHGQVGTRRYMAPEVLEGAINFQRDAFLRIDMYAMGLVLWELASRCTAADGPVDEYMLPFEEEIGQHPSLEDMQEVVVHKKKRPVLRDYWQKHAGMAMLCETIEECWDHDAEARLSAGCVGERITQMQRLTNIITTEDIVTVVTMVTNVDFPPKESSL
- Sequence (chain, as listed by the source, chain 2 of 2): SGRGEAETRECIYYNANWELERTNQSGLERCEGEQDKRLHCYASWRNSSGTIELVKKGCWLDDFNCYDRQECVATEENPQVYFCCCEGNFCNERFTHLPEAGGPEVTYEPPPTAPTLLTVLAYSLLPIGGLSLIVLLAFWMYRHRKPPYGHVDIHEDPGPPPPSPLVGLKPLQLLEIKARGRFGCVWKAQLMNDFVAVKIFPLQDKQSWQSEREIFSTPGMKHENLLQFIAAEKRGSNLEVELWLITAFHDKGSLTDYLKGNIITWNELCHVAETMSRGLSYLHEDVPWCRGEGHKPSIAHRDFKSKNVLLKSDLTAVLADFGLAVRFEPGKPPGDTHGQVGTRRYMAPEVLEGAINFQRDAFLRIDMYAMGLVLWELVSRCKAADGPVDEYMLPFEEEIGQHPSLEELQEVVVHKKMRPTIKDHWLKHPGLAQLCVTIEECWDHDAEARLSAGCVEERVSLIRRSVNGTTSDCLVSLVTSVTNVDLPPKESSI
- MEASUREMENT_NOTES: cell-based or functional assay
Write down the numeric answer in nM and omit the unit.

Q: # query: IC90, Activin SMAD RGA of entry Antibody Mauldascha (antibody, V domains shown) VH: QVQLVQSGAEVKKPGSSVKVSCKASGYTFTSSYINWVRQAPGQGLEWMGTINAVSGSTSYAQKFQGRVTITADESTSTAYMELSSLRSEDTAVYYCARGGWFDYWGQGTLVTVSS VL: QSALTQPRSVSGSPGQSVTISCTGTSSDVGSYNYVNWYQQHPGKAPKLMIYGVSKRESGVPDRFSGSKSGNTASLTISGLQAEDEADYYCGTFAGGKYYGVFGGGTKLTVL
Ans: 6.72

Q: And what about the binder Antibody Rauchfloisch (antibody, V domains shown) VH: QVQLVQSGAEVKKPGSSVKVSCKASGYTFTSSYINWVRQAPGQGLEWMGTINAVSGSTSYAQKFQGRVTITADTSTSTAYMELSSLRSEDTAVYYCARGGWFDYWGQGTLVTVSS VL: QSALTQPRSVSGSPGQSVTISCTGTSSDVGSRNYVNWYQQHPGKAPKLMIYGVSKRESGVPDRFSGSKSGNTASLTISGLQAEDEADYYCGTFAGGDYYGVFGGGTKLTVL ?
Ans: 5.11

Q: And what about the binder Antibody Schnitzbrot (antibody, V domains shown) VH: QVQLVQSGAEVKKPGSSVKVSCKASGYKFTSSYINWVRQAPGQGLEWMGTINAVSGSTSYAQKFQGRVTITADTSTSTAYMELSSLRSEDTAVYYCARGGWFDYWGQGTLVTVSS VL: QSALTQPRSVSGSPGQSVTISCTGTSSDVGSYNYVNWYQQHPGKAPKLMIYGVSKRDSGVPDRFSGSKSGNTASLTISGLQAEDEADYYCGTFAGGKYYGVFGGGTKLTVL ?
Ans: 2.52
